target-of-assay: [35S]-TBPS binding, rat brain cortical membranes
assay-notes: Steroid inhibition of [35S]-TBPS binding
experimental-setup: 3 nM [35S]-TBPS, in the presence of 5 μM GABA
Protocol: [35S]-Butylbicyclophosphorothionate (TBPS) binding assays using rat brain cortical membranes in the presence of 5 μM GABA has been described (Gee et al, J. Pharmacol. Exp. Ther. 1987, 241, 346-353; Hawkinson et al, Mol. Pharmacol. 1994, 46, 977-985; Lewin, A. H et al., Mol. Pharmacol. 1989, 35, 189-194). Briefly, cortices are rapidly removed following decapitation of carbon dioxide-anesthetized Sprague-Dawley rats (200-250 g). […]
attribute-measured: IC50

molecule: CC(=O)[C@H]1CC[C@H]2[C@@H]3CC[C@@H]4C[C@](C)(O)CC[C@]4(COC(C)C)[C@H]3CC[C@]12C [Compound 5]
result: < 0.01 µM

The reported measurements were obtained from patent US11149057B2.
